System: Saccharomyces cerevisiae BY4741 SeMeCo community
Assay: z-score of subpopulation abundance vs DMSO median, subpopulation auxotrophic for HM; higher = larger share of this subpopulation than in DMSO controls
Conditions: 10 µM; 24 h; SM minimal medium; subpopulation (auxotrophy): HM
QUANTITY KIND: z-score of subpopulation abundance
Give bare numbers.

Please review the following examples before continuing.
COMPOUND	TARGET OR TEST SYSTEM	z-score of subpopulation abundance
CC(=O)OCC1=C(C(=O)O)N2C(=O)C(NC(=O)CSC(=NC(C)C)NC(C)C)C2SC1 (stereo not drawn)	Saccharomyces cerevisiae BY4741 SeMeCo community	-0.6
C[C@]12CC[C@@H]3c4ccc(O)cc4CC[C@H]3[C@@H]1CC[C@@H]2OC(=O)CCC1CCCC1 [Estradiol Cypionate]	Saccharomyces cerevisiae BY4741 SeMeCo community	-0.34
CCOc1cc(NC(C)=O)ccc1C(=O)OC [Ethopabate]	Saccharomyces cerevisiae BY4741 SeMeCo community	-0.11
Cc1c(Cl)cccc1Nc1ccccc1C(=O)O	Saccharomyces cerevisiae BY4741 SeMeCo community	-1.11

Take each entry in turn and give its z-score of subpopulation abundance.
1. CN(C)c1cc(NC(=O)CNC(C)(C)C)c(O)c2c1CC1CC3C(N(C)C)C(=O)C(C(N)=O)=C(O)C3(O)C(=O)C1=C2O (stereo not drawn)
2. CCS(=O)(=O)CCn1c([N+](=O)[O-])cnc1C
3. OC1(c2ccc(Cl)c(C(F)(F)F)c2)CCN(CCCC(c2ccc(F)cc2)c2ccc(F)cc2)CC1
4. C[C@@H](O)[C@H]1C(=O)N2C(C(=O)O)=C(S[C@@H]3CN[C@H](CNS(N)(=O)=O)C3)[C@H](C)[C@H]12 [Doripenem Hydrate]

1. -0.15
2. -1.1
3. 0.4
4. -0.76

###

Tested on: Saccharomyces cerevisiae BY4741 SeMeCo community
Test: z-score of subpopulation abundance vs DMSO median, subpopulation auxotrophic for UM; higher = larger share of this subpopulation than in DMSO controls
Details: 10 µM; 24 h; SM minimal medium; subpopulation (auxotrophy): UM
For each entry below, report its z-score of subpopulation abundance value.
Answers are plain numbers.

Use the examples below as a reference point.
MOLECULE	QUANTITY KIND	RECORDED VALUE
CN(CCOc1ccc(NS(C)(=O)=O)cc1)CCc1ccc(NS(C)(=O)=O)cc1 [Dofetilide]	z-score of subpopulation abundance	0.1
CC1(C)S[C@@H]2[C@H](NC(=O)Cc3ccccc3)C(=O)N2[C@H]1C(=O)O.CCN(CC)CCOC(=O)c1ccc(N)cc1	z-score of subpopulation abundance	0.64
C[C@@H](O)[C@H]1C(=O)N2C(C(=O)O)=C(S[C@@H]3CN[C@H](C(=O)N(C)C)C3)[C@H](C)[C@H]12 [Meropenem]	z-score of subpopulation abundance	-0.33

# input for lookup
Item under review: `CCCSc1ccc2[nH]c(NC(=O)OC)nc2c1` . Reported z-score of subpopulation abundance?
0.26

###

Tested on: Saccharomyces cerevisiae BY4741 SeMeCo community
Assay: z-score of subpopulation abundance vs DMSO median, subpopulation auxotrophic for H; higher = larger share of this subpopulation than in DMSO controls
Conditions: 10 µM; 24 h; SM minimal medium; subpopulation (auxotrophy): H
Where a name gives a salt, the structure may show the parent alone.
Returns True if the recorded z-score of subpopulation abundance is greater than or equal to -0.2, and False otherwise.

Does z-score of subpopulation abundance meet or surpass -0.2 for `Cc1cc(O)cc(C)c1Cl` ?
True

Reported z-score of subpopulation abundance at or above -0.2? O=C(O)c1cn(C2CC2)c2cc(N3CCNCC3)c(F)cc2c1=O [Ciprofloxacin hydrochloride hydrate]
False

Please tell me: is the molecule O=C(O)c1cc(/N=N/c2ccc(O)c(C(=O)O)c2)ccc1O [Olsalazine Sodium] at or over -0.2 in terms of z-score of subpopulation abundance?
False

Threshold query (z-score of subpopulation abundance >= -0.2) on CCC(C)n1ncn(-c2ccc(N3CCN(c4ccc(OCC5COC(Cn6cncn6)(c6ccc(Cl)cc6Cl)O5)cc4)CC3)cc2)c1=O (stereo not given)
True

###

Test system: Saccharomyces cerevisiae BY4741 SeMeCo community
Assay: z-score of subpopulation abundance vs DMSO median, subpopulation auxotrophic for U; higher = larger share of this subpopulation than in DMSO controls
Details: 10 µM; 24 h; SM minimal medium; subpopulation (auxotrophy): U
Decide using z-score of subpopulation abundance: a value greater than or equal to 0.6 is yes, a smaller one is no.

Answer whether z-score of subpopulation abundance of COc1c(N2CCNC(C)C2)c(F)cc2c(=O)c(C(=O)O)cn(C3CC3)c12 (stereo unspecified) is greater than or equal to 0.6.
yes

###

Tested on: Saccharomyces cerevisiae BY4741 SeMeCo community
Test: z-score of subpopulation abundance vs DMSO median, subpopulation auxotrophic for HU; higher = larger share of this subpopulation than in DMSO controls
Settings: 10 µM; 24 h; SM minimal medium; subpopulation (auxotrophy): HU
Structures can show the parent of a compound that is named as a salt.
QUANTITY KIND: z-score of subpopulation abundance
One number for each entry.

Below, each entry is followed by its recorded z-score of subpopulation abundance result.
COMPOUND	z-score of subpopulation abundance
CCN(CC)CCNC(=O)c1cc(Cl)c(N)cc1OC [Metoclopramide]	1.02
COc1ccnc(C[S+]([O-])c2nc3cc(OC(F)F)ccc3[nH]2)c1OC (configuration not stated) [Pantoprazole sodium]	0.06
CCn1cc(C(=O)O)c(=O)c2ccc(C)nc21	-0.52

For every listed record, write down its z-score of subpopulation abundance.
1. Oc1c(Br)cc(Br)c2cccnc12
2. COc1ccc2cc([C@H](C)C(=O)O)ccc2c1 [Naproxen]
3. O=C1CN(/N=C/c2ccc([N+](=O)[O-])o2)C(=O)N1
4. CCCN[C@H]1CCc2nc(N)sc2C1 [Pramipexole]
5. CNCCC(Oc1ccc(C(F)(F)F)cc1)c1ccccc1 (configuration not stated) [Fluoxetine HCl]
6. NC[C@H]1O[C@H](O[C@H]2[C@H](O[C@@H]3O[C@H](CO)[C@@H](O)[C@H]3O)[C@@H](O)[C@H](N)C[C@@H]2N)[C@H](N)[C@@H](O)[C@@H]1O [Ribostamycin Sulfate]
7. COc1cc(NC(C)CCCN)c2ncccc2c1 (configuration not stated) [Primaquine Diphosphate]
8. CC(=O)OC1CC2(C)C(CC(O)C3C4(C)CCC(O)C(C)C4CCC32C)C1=C(CCC=C(C)C)C(=O)O (configuration not stated)

1: 16.9; 2: -1.2; 3: -0.72; 4: 1.27; 5: -0.26; 6: -0.5; 7: -1.2; 8: 0.13

###

Answer each item with its documented z-score of subpopulation abundance.
Test system: Saccharomyces cerevisiae BY4741 SeMeCo community
Assay: z-score of subpopulation abundance vs DMSO median, subpopulation auxotrophic for HLM; higher = larger share of this subpopulation than in DMSO controls
Conditions: 10 µM; 24 h; SM minimal medium; subpopulation (auxotrophy): HLM
Structures can show the parent of a compound that is named as a salt.
Numbers only.

MOLECULE	z-score of subpopulation abundance
CO[C@@H]1[C@@H](O[C@@H]2O[C@H](C)[C@@H](O[C@H]3C[C@@](C)(O)[C@@H](O)[C@H](C)O3)[C@H](N(C)C)[C@H]2O)[C@@H](CC=O)C[C@@H](C)[C@@H](O[C@H]2CC[C@H](N(C)C)[C@@H](C)O2)/C=C/C=C/C[C@@H](C)OC(=O)C[C@H]1OC(C)=O	0.23

Working through the 5 molecules below one at a time, give z-score of subpopulation abundance for each.
1. CO[C@@]1(NC(=O)Cc2cccs2)C(=O)N2C(C(=O)O)=C(COC(N)=O)CS[C@@H]21 [Cefoxitin sodium]
2. CN1CCN2c3ncccc3Cc3ccccc3C2C1 (stereo not given)
3. COc1ccnc(C[S+]([O-])c2nc3cc(OC(F)F)ccc3[nH]2)c1OC (stereo not given) [Pantoprazole sodium]
4. O=C(CCCN1CCN(c2ccccn2)CC1)c1ccc(F)cc1
5. CO/N=C(\C(=O)N[C@@H]1C(=O)N2C(C(=O)O)=C(Cn3ccc(=N)n3CCO)CS[C@H]12)c1csc(N)n1 [Cefoselis Sulfate]

-0.9
-0.85
-0.85
-0.5
-1.24

Provide the reported z-score of subpopulation abundance of each entry below, same order.
1. C[C@H]1COc2c(N3CCN(C)CC3)c(F)cc3c(=O)c(C(=O)O)cn1c23 [Levofloxacin hydrate]
2. Fc1ccc([C@@H]2CCNC[C@H]2COc2ccc3c(c2)OCO3)cc1 [Paroxetine HCl]

[0.07, 0.16]

Hello, I would appreciate it if you could give z-score of subpopulation abundance for each entry below.
1. COc1ccc(CC2c3cc(OC)c(OC)cc3CC[N+]2(C)CCC(=O)OCCCCCOC(=O)CC[N+]2(C)CCc3cc(OC)c(OC)cc3C2Cc2ccc(OC)c(OC)c2)cc1OC (stereo not given) [Atracurium Besylate]
2. CN1[C@@H]2CC[C@H]1C[C@@H](OC(=O)c1c[nH]c3ccccc13)C2 [Tropisetron HCl]

0.51
-0.38
